# TEST SUMMARY: qHTS assay for small molecule agonists of the antioxidant response element (ARE) signaling pathway - cell viability counter screen (AID 743203); further: nearly all actives have a fitted effect of over 55% in size
# ASSAY CONTEXT: ARE-bla HepG2 viability, CellTiter-Glo luminescence, 16 h; series mostly up to 73.3 µM
Records with an inconclusive call do not appear. The source made the active and inactive calls. The call rests on the fitted dose curve.
PROPERTY NAME: outcome

Please review the entries below; each comes with its answer.
| MOLECULE | outcome |
| --- | --- |
| CCCCCCCCCCC[C@@H](C[C@@H]1OC(=O)[C@H]1CCCCCC)OC(=O)[C@H](CC(C)C)NC=O | inactive |
| C#C[C@]1(OC(C)=O)CC[C@H]2[C@@H]3CCC4=C[C@@H](OC(C)=O)CC[C@@H]4[C@H]3CC[C@@]21C | inactive |
| CC(C)(C)NSc1nc2ccccc2s1 | inactive |
| CN1CCN2c3ccccc3Cc3ccccc3C2C1 (stereo not given) | inactive |

Given the molecule CCO[C@@H]1O[C@H](C(COCc2ccccc2)OCc2ccccc2)[C@H](OCc2ccccc2)[C@H]1O (stereo not given in full) , write its reported outcome.
inactive
